For reference, pKi measured on CB1 receptor (Homo sapiens, UniProt P21554):
Expect pKi as a plain number equal to -log10 of the molar concentration.

Value sought: pKi, system CB1 receptor (Homo sapiens, UniProt P21554), item O=C(Nc1sc2c(c1C(=O)N1CCCCC1)CCCCC2)[C@H]1CCCN1S(=O)(=O)c1cccs1 [AAF(a)] . Result: 8.14

Value sought: pKi, system CB1 receptor (Homo sapiens, UniProt P21554), item O=C(Nc1sccc1C(=O)N1CCCCC1)[C@H]1CCCN1S(=O)(=O)c1ccccc1 [CAA(a)] . Result: 5.72

Read the next record carefully.
Value sought: pKi, system CB1 receptor (Homo sapiens, UniProt P21554), item O=C(Nc1sc2c(c1C(=O)N1CCCCC1)CCCCC2)[C@H]1CCCN1S(=O)(=O)c1ccc(F)cc1 [AAB(a)] . Result: 7.36

###

For reference, Ki measured on UniProt P21554:
# output: bare number, implied unit nM

Example entries and their recorded answers appear below.
Summary for this molecule, O=C(Nc1sc2c(c1C(=O)N1CCCCC1)CCCCC2)[C@H]1CCCN1S(=O)(=O)c1ccccc1 [AAA(a)] : Ki is 4.7

Summary for this molecule, O=C(Nc1sc2c(c1C(=O)N1CCCCC1)CCCCC2)[C@@H]1CCCN1S(=O)(=O)c1ccccc1 [AAA(b)] : Ki is 366

Summary for this molecule, CS(=O)(=O)N1CCC[C@@H]1C(=O)Nc1sc2c(c1C(=O)N1CCCCC1)CCCCC2 [AAD(a)] : Ki is 2190

Summary for this molecule, O=C(Nc1sc2c(c1C(=O)N1CCCCC1)CCCCC2)[C@H]1CCCN1C(=O)c1ccccc1 [EAA(a)] : Ki is 9290

Summary for this molecule, O=C(Nc1ccsc1C(=O)N1CCCCC1)[C@H]1CCCN1S(=O)(=O)c1ccccc1 [DAA(a)] : Ki is 1240

Further cases:
Summary for this molecule, Cc1ccc(S(=O)(=O)N2CCC[C@@H]2C(=O)Nc2sc3c(c2C(=O)N2CCCCC2)CCCCC3)cc1 [AAC(a)] : Ki is 261

Summary for this molecule, O=C(Nc1ccccc1C(=O)N1CCCCC1)[C@H]1CCCN1S(=O)(=O)c1ccccc1 [GAA(a)] : Ki is 1130

Summary for this molecule, CCOC(=O)c1c(NC(=O)[C@H]2CCCN2S(=O)(=O)c2ccccc2)sc2c1CCCCC2 [ABE(a)] : Ki is 15.1

###

For reference, pKi measured on CB2 receptor (Homo sapiens, UniProt P34972):
Expect pKi as a plain number equal to -log10 of the molar concentration.

Value sought: pKi, system CB2 receptor (Homo sapiens, UniProt P34972), item CCOC(=O)c1c(NC(=O)[C@H]2CCCN2S(=O)(=O)c2ccccc2)sc2c1CCCCC2 . Result: 7.94

Value sought: pKi, system CB2 receptor (Homo sapiens, UniProt P34972), item O=C(Nc1sc2c(c1C(=O)N1CCCCC1)CCCCC2)[C@H]1CCCN1S(=O)(=O)c1ccccc1 . Result: 8.37

Value sought: pKi, system CB2 receptor (Homo sapiens, UniProt P34972), item Cc1ccc(S(=O)(=O)N2CCC[C@@H]2C(=O)Nc2sc3c(c2C(=O)N2CCCCC2)CCCCC3)cc1 . Result: 6.81

Value sought: pKi, system CB2 receptor (Homo sapiens, UniProt P34972), item O=C(Nc1sc2c(c1C(=O)N1CCCCC1)CCCCC2)[C@H]1CCCN1S(=O)(=O)c1cccs1 . Result: 8.35

Read the next record carefully.
Value sought: pKi, system CB2 receptor (Homo sapiens, UniProt P34972), item O=C(Nc1sc2c(c1C(=O)N1CCCCC1)CCCCC2)[C@H]1CCCN1S(=O)(=O)c1ccc(F)cc1 . Result: 7.45

Recorded values, source patent US8084612B2.
